This collection of values is drawn from patent US20230272055A1.

Target: T1, human mutCALR on BaF3 cells stably expressing human MPL and human mutCALR (MPL-mutCALR cells) (human)
T1 construct: also called mutant calreticulin
T1 chain: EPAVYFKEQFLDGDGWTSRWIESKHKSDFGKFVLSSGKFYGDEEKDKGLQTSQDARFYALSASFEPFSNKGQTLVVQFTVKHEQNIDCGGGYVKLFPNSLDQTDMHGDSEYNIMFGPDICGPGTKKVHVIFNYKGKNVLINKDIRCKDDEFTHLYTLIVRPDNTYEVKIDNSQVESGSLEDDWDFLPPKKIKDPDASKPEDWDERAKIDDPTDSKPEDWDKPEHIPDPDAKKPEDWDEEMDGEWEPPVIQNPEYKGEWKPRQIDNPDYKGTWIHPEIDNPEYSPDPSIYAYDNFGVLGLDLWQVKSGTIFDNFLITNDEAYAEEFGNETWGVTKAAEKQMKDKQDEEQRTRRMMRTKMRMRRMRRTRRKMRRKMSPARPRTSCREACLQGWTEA
Experiment: flow cytometry, BaF3 MPL-mutCALR cells
For each entry below, report its MPL-mutCALR AUC value.
Please give only the number in your answer, with no unit.

Problem: Endpoint output: MPL-mutCALR AUC of anti-mutCALR antibody clone 130 (antibody, human IgG1, lambda, N297A, V domains shown) VH: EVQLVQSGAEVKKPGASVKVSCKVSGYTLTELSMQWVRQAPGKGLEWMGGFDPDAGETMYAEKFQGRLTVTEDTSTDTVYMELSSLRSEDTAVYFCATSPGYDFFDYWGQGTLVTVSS VL: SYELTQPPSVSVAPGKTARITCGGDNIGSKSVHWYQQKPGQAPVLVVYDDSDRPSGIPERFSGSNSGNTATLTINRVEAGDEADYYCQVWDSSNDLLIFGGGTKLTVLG . Value?
Result: 58300

Problem: Entry to check: anti-mutCALR antibody clone 183 (antibody, human IgG1, lambda, N297A, V domains shown) VH: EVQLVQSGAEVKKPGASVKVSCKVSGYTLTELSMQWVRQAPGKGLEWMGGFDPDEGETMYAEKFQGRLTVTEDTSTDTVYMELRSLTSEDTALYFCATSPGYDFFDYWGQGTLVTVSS VL: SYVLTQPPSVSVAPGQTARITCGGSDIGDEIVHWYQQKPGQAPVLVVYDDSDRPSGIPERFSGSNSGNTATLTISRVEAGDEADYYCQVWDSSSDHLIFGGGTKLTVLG
Result: 70700

Problem: Entry to check: anti-mutCALR antibody clone 39 (antibody, human IgG1, kappa, V domains shown, human IgG1) VH: EVQLVQSGAEVKKPGSSVKVSCKASGGTFSSYAISWVRQAPGQGLEWMGLVDPEDGETIYAEKFQGRVTITADTSTDTAYMELSSLRSEDTAVYYCATEESYGPWGQGTLVTVSS VL: DIQLTQSPSSLSASVGDRVTITCQASQDISNYLDWYQQKPGKAPKLLIYDASNLETGVPSRFSGSGSGTEFTLTISSLQPEDFATYYCQQLNSYPLTFGGGTKLEIKR
Result: 51500
